Assignment: determine reported kon for the given binders.
# TARGET_ENTITY: T1, hVISTA-ECD 6-His tag (human, UniProt Q9H7M9 33-193)
# T1 construct: also called monovalent hVISTA-ECD; human VISTA
# EXPERIMENT_NOTES: SPR, Ab on Protein A, hVISTA analyte, pH 6.9
Could you give me the number in M⁻¹ s⁻¹? Just the number is fine.

Q) Give the measured kon of P1-061520 (41F11 VK_A64G) (antibody, V domains shown, also called P1-061520-21; VISTA.4.A64G) VH: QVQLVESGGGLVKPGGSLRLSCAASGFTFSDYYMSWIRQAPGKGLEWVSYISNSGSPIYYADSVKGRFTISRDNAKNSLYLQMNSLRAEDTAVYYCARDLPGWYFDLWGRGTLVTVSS VL: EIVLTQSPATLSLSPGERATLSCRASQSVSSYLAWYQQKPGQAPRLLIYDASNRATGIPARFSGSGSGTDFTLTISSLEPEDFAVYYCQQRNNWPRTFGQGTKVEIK .
A) 646000

Q) Request: P1-068748 (antibody, human IgG1, kappa, V domains shown, also called P1-068748-6) VH: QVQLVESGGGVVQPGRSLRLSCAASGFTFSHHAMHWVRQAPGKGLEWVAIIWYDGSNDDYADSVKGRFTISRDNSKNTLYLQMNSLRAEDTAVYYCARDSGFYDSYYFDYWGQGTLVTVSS VL: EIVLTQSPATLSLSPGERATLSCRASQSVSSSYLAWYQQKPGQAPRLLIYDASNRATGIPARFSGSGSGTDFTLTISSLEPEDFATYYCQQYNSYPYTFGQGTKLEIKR
A) 82000

Q) Another binder: P1-068744 (antibody, human IgG1, kappa, V domains shown, also called P1-068744-7) VH: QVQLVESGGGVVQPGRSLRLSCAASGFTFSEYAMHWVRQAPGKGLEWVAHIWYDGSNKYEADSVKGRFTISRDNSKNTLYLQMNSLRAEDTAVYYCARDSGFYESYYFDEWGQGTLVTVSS VL: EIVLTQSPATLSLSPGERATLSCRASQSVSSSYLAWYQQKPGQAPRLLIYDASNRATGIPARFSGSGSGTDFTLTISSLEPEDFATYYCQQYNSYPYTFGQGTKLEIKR
A) 7100

Q) What do you get for P1-070976 (41F11_VH_T28P_Y50W_S55E_D95H_L96E_P97E_Y100E; Vk_A64G) (antibody, V domains shown, They look like Kabat positions on the mature VH, but no numbering scheme is stated; also called P1-070976-11) VH: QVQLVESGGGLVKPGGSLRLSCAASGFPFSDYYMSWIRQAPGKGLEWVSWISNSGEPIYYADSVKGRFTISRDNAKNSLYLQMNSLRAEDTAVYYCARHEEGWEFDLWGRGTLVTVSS VL: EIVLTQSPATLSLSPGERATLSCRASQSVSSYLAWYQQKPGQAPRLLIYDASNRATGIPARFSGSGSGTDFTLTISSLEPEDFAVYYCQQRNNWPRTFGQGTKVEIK ?
A) 11000

Where do the numbers come from? From patent US20230192860A1.
